Catalogue of viability at 28.5 h, 10 µM readings, one per entry.
test: in vitro; conditions: human, hela cells, % viability
Numbers only here, please. The scale is %.

For record "COc1ccc(C(=O)Nc2ccc(C(C)=O)cc2)cc1[N+](=O)[O-]" the listed viability at 28.5 h, 10 µM is 90.8

Lookup result for "O=C(OCc1nc2ccccc2[nH]1)N1CCOCC1" ; measured viability at 28.5 h, 10 µM: 109

Input "CC(C)(C)C(=O)Nc1nnc(SCC(=O)N2CCc3ccccc32)s1" . Output viability at 28.5 h, 10 µM: 83.5

get_value(item= "O=C(O)CCc1ccc(-c2cn3ccnc3c(N3CCOCC3)n2)cc1" , readout=viability at 28.5 h, 10 µM) returns 93.6

Summary for this compound, CC(C)(C)c1ccc(OCC(O)CSc2nnc[nH]2)cc1 (stereo not shown) : viability at 28.5 h, 10 µM is 103

Kindly note the recorded viability at 28.5 h, 10 µM for CC(c1ccc(S(C)(=O)=O)cc1)N(C)C(=O)COc1ccc2ccccc2c1 (stereo not shown) , which is 103

So, "Cc1cccc(CC(=O)N2CCC(Cc3ccc(-c4cccc(C)c4)cc3)(C(N)=O)CC2)c1" ? Its viability at 28.5 h, 10 µM was 104

Query "CC[C@H]1CN(C(=O)C(C)(C)C)CC[C@H]1CC(=O)NCc1cccnc1" yields viability at 28.5 h, 10 µM of 97.8

// "O=C(O)COCc1nn(-c2ccc(Br)cc2)c2c1CCCC2" : viability at 28.5 h, 10 µM value = 98.6

Form field viability at 28.5 h, 10 µM, entry "CC1(C)CC(N(Cc2ccccc2)Cc2c[nH]cn2)CC(C)(C)N1" : 103

COc1ccc2c(c1)CCN(C(=O)C1CCc3nn(C)c(=O)n3C1)C2 (stereo not shown) has a reported viability at 28.5 h, 10 µM of 93.3

# compound O=S(=O)(c1ccc(Cl)cc1)c1ccc2ccnc(N3CCCNCC3)c2c1 [CBK036416C] ; its viability at 28.5 h, 10 µM = 82.9

// viability at 28.5 h, 10 µM lookup, compound = "CC1(C)CCN(Cc2nnnn2-c2ccc(S(C)(=O)=O)cc2)C1" , result: 94.7

Per the record, CCC(=O)NC(NC(=S)Nc1cccc2cccnc12)C(Cl)(Cl)Cl (stereo not shown) has viability at 28.5 h, 10 µM of 96.1

response.value for "COc1ccc(Nc2nc(N)nc(CSc3nnc(N)s3)n2)cc1" (field: viability at 28.5 h, 10 µM) = 90.6

Consider "O=C(NCCc1ccccc1)NCCc1cccs1" . Its measured viability at 28.5 h, 10 µM is 114

Record summary for COc1cccc(NC(=O)C2CN(S(=O)(=O)c3ccccc3)CCN2S(=O)(=O)c2ccccc2)c1 (stereo not shown) : reported viability at 28.5 h, 10 µM = 85.9

Entry under test: CC1=C(C(=O)OCC(C)C)C(c2ccc(C)cc2)N2C(=O)C(C)SC2=N1 (stereo not shown) . Its viability at 28.5 h, 10 µM was 92.8

// "COc1ccc2c(c1)cc(C)c1n[nH]c(=O)n12" : viability at 28.5 h, 10 µM value = 76.7
